assay: Pharmacokinetics in mouse after p.o. and i.v. administration; assay type: in vivo; conditions: C57BL/6J, mouse, in vivo, iv, 2 mg/kg, mouse 2mg/kg i.v.; Mean; read-out: MRTINF_obs
recorded.metric: MRT inf (h)

>>> print(df.to_string())
                                   molecule  observed
0  CN(C)CCCCn1c(=O)c2c(nc(Oc3cccc(Cl)c3)n2Cc2ccc(Cl)cc2)n(C)c1=O [H08]      3.94

###

assay: Pharmacokinetics in mouse after p.o. and i.v. administration; type: in vivo; details: C57BL/6J, mouse, in vivo, po, 10 mg/kg, mouse 10mg/kg p.o.; individual animals 1-3; read-out: MRTINF_obs
recorded.metric: MRT inf (h)

                                   compound  observed
0  CN(C)CCCCn1c(=O)c2c(nc(Oc3cccc(Cl)c3)n2Cc2ccc(Cl)cc2)n(C)c1=O [H08]      4.73
